target: human Orai1 (human, UniProt Q96D31 1-301); test: cell-based or functional assay
Sequence (Q96D31 whole entry): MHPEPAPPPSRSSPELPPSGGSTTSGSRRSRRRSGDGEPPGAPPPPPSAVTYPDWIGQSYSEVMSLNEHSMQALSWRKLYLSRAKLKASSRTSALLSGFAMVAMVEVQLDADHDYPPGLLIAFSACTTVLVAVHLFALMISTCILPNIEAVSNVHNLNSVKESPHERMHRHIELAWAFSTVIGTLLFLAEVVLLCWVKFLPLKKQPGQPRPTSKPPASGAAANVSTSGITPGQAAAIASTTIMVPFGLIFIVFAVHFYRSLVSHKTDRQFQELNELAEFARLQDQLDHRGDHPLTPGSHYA
Listed binders paired with reported IC50, NFAT-mediated luciferase assay (FIG. 6C)
Kindly answer with a numeric value in nM, unit omitted.

Take a look at these entries with their results.
mAb 2B7.1 (antibody, human IgG2, V domains shown, fully human, Campaign 1) VH: QVQLQQWGAGLLKPSETLSLTCAVYGGSFSGYYWSWIRQPPGKGLEWIGEIDHSGSTNYNPALKSRLTISVDTSKNQFSLKLSSVTAADTAVYYCARAGSGGYEDWFDPWGQGTLVTVSS VL: QSVLTQPPSVSGAPGQRVTISCTGSSSNIGTGYNVHWYQQFPRTDPKLLIYVYNIRPSGVPDRFSGSRSGTSASLAITGLQTEDEADYYCQSYDSSLSGVVFGGGTKLTVLG	3.5
mAb 2B4.1 (antibody, human IgG2, lambda, V domains shown) VH: QVQLVQSGAEVKKPGASVKVSCKASGYTFTDYYMHWVRQAPGQGLEWMGWINPNSGGTNYVQKFQDRVTMTRDTSITTAYMELTRLRSDDTAVYYCAREEGDYGMDVWGQGTTVTVSS VL: QSVLTQPPSVSGAPGQRVTISCTGSNSNIGTGYDVHWYQKLPGTAPRLLIYSHFNRPSGVPDRFSGSTSGTSASLAITGLQAEDEADYYCQSYDSSLSGSVFGGGTKLTVLG	1800
mAb 2C1.1 (antibody, human IgG2, lambda, V domains shown, fully human IgG2 lambda, Campaign 1; tested hybridoma-purified and recombinant; also called anti-hOrai1 mAb 2C1.1) VH: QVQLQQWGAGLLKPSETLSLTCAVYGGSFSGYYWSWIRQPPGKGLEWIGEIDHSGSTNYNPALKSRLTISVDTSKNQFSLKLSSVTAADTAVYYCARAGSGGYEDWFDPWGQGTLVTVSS VL: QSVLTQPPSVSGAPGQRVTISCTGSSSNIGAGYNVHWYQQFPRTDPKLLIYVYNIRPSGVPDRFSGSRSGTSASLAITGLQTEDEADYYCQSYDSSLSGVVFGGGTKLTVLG	1.8

Here's the next entry for you.
Quick one: IC50, NFAT-mediated luciferase assay (FIG. 6C) of mAb 2D2.1 (antibody, human IgG2, lambda, V domains shown, fully human IgG2 lambda, Campaign 1; also called mAb 2D.1) VH: QVQLQQWGAGLLKPSETLSLTCAVYGGSFSGYYWSWIRQPPGKGLEWIGEIDHSGRINYNPALKSRLTISVDTSKNQFSLKLSSVTAADTAVYYCARAGSGGYEDWFDPWGQGTLVTVSS VL: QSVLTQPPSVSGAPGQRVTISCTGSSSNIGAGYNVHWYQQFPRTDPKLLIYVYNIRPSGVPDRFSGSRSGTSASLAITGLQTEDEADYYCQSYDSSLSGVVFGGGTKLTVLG ?
2.7
